Data credit: PubChem BioAssay

- TARGET SYSTEM: Streptavidin (Streptomyces avidinii) (UniProt P22629)
- Sequence (P22629 whole entry, looked up): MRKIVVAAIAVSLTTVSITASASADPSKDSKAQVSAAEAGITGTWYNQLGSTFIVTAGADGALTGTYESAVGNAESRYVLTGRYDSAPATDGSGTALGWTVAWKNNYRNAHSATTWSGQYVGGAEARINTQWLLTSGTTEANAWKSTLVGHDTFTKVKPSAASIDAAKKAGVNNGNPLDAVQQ
- TEST DETAILS: streptavidin binders on small-molecule microarray, primary screen, artefact control for SMM compound annotation, biophysical, 635/667 nm fluorescence (AID 1147);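 note: signal reflects streptavidin binding to arrayed compounds as a control protein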
- RUN PARAMETERS: streptavidin binding, higher = more signal
Response field class: enum, chosen by comparing composite z-score against lo: < -0.3; med: ≥ -0.3 and < 0.5; hi: ≥ 0.5

Class label required: CN1C=C(C(=O)OCCS(C)(=O)=O)C(C(=O)OCCS(C)(=O)=O)=CC(CCCO)=CC1c1ccc(CN2CCCC2)cc1 (stereo not given)
hi

Hi there! Could you help me figure out the category for `Cc1ccc(S[C@]2(C(=O)NCCCN(C)C)CC(=O)N(Cc3ccccc3Cl)[C@@H]2c2ccc(CO)cc2I)cc1` please?
med

The entry to classify is C=CCC(OC(C)=O)[C@@H]1[C@@H](N(Cc2ccc(-c3cccc(C(F)(F)F)c3)o2)C(=O)c2cccc3ccccc23)c2cc(OCCCO)ccc2N1C(=O)c1ccc2ccccc2n1 (stereo not given in full) ; which class holds it?
lo

###

- TEST DETAILS: P. aeruginosa biofilm formation inhibitors, primary screen, strain PAO1, LB-PBS medium, absorbance 600 nm (AID 1176); note: test concentration not given here
- RUN PARAMETERS: P. aeruginosa PAO1 growth/biofilm, A600, 12 h; higher = more signal
PROPERTY LABEL: z-score
One number for each entry.

As a guide, the following entries are already answered.
C=CCOC(=O)[C@H]1[C@@H]2C(=O)O[C@@H](c3ccccc3)[C@@H](c3ccccc3)N2[C@@H](c2ccc(OCCOC(=O)[C@H]3C[C@H]4C(=O)NCC(=O)N4[C@H]3c3ccc(O)cc3)cc2)[C@]12C(=O)Nc1ccc(I)cc12; 2.83
C#CCN(C/C=C/c1ccccc1)[C@H](CO[Si](C)(C)C(C)(C)C)c1ccccc1; 0.167
NC(=O)N1C(=O)C2C(C1=O)C1C=C(CCCO)C2C(c2ccc(CN3CCCC3)cc2)N1Cc1cccc(OC(F)(F)F)c1 (centres undefined); -0.66
C=C(COC)/C(=C/C[C@H](OC(=O)c1ccncc1)c1ccc(OCCO)cc1)c1cc(C(=O)OC)ccc1OC; -0.505
CC(=O)c1ccc(C(O)C2C=CC3C(=O)NC(=O)C3N2Nc2ccc(Cl)cc2Cl)cc1 (centres undefined); 0.835

Fill in z-score for each of the 2 compounds listed.
1. CC(C)[C@@H](C(=O)O)n1cc(-c2ccccc2)nn1
2. C=CCC(OC(C)=O)[C@@H]1[C@@H](N(Cc2cc3ccccc3o2)C(=O)Cc2ccc(OC)cc2)c2cc(OCCCO)ccc2N1C(=O)Cc1ccc(OC)cc1 (some centres undefined)

1: -0.145; 2: 0.198

Below are 4 compounds. Give each one its z-score.
1. CC[C@H](C)C(=O)O[C@H]1CC[C@]2(C)C3=C(CCC2C1(C)C)[C@]1(C)CC[C@H]([C@H](C)CCCC(C)C)[C@@]1(C)CC3 (some centres undefined)
2. COc1ccc(NN2C(C(O)c3cc(C(F)(F)F)cc(C(F)(F)F)c3)C=CC3C(=O)N(C4CCCCC4)C(=O)C32)cc1 (centres undefined)
3. C=CCC(OC(C)=O)[C@@H]1[C@@H](N(Cc2ccc(-c3ccccc3)cc2)C(=O)c2ccc(C)cc2)c2cc(OCCCO)ccc2N1C(=O)c1ccc2ccccc2c1 (some centres undefined)
4. COCCOC(=O)N1C(=O)[C@@]2(c3cc(C#CCCO)ccc31)[C@H](c1ccc(O)cc1)N1[C@H](c3ccccc3)[C@H](c3ccccc3)OC(=O)[C@H]1[C@@H]2C(=O)N1CCc2cc(OC)c(OC)cc2C1

-0.283
1.21
-0.0877
0.318

Could you tell me z-score for each of these compounds? They are listed below.
1. CCCC=C(CCC)[C@@H](NC(=O)c1ccco1)c1ccc(C(=O)OC)cc1
2. CN(C)C(=O)[C@]1(Cc2ccccc2)N=C(c2ccc(OCCCO)cc2)O[C@@H]1c1ccccc1
3. COCCOC(=O)N1C(=O)[C@@]2(c3ccccc31)[C@H](c1ccc(OCCO)cc1)N1[C@H](c3ccccc3)[C@H](c3ccccc3)OC(=O)[C@H]1[C@@H]2C(=O)N1CCN(c2ncccn2)CC1

[-0.387, -0.304, 1.89]

###

- Tested on: Plasmodium falciparum Sir2 (PF13_0152, Sir2A)
- TEST DETAILS: pfSir2 binders on small-molecule microarrays, primary screen, biochemical, small-molecule microarray, 635 nm fluorescence (AID 1098);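 note: score merges spot fluorescence intensity with its signal-to-noise ratio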
- RUN PARAMETERS: small-molecule microarray binding, fluorescence 635 nm; higher = more signal
Decide by composite z-score: equal to or exceeding 1 means Criterion met, less means Criterion not met.

C=CCC(OC(C)=O)[C@@H]1[C@@H](N(Cc2cc3ccccc3o2)C(=O)Cc2ccc(OC)cc2)c2cc(OCCCO)ccc2N1C(=O)Cc1ccc2ccccc2c1 (stereo not given in full); Criterion not met
COCCOC(=O)N1C(=O)[C@@]2(c3cc(C#CCC(C(=O)OC)C(=O)OC)ccc31)[C@H](C(N)=O)[C@H]1C(=O)O[C@H](c3ccccc3)[C@H](c3ccccc3)N1[C@@H]2c1ccc(OCCO)cc1; Criterion met
COC(=O)C(CC#Cc1ccc2c(c1)[C@]1(C(=O)N2)[C@H](c2ccc(O)cc2)N2[C@H](c3ccccc3)[C@H](c3ccccc3)OC(=O)[C@H]2[C@@H]1C(=O)N1CCc2cc(OC)c(OC)cc2C1)C(=O)OC; Criterion met
CN1C(=O)C2C(C1=O)C1C=C(c3ccc(CO)cc3)C2C(c2cccs2)N1C (stereo not given); Criterion not met
CCCCCN1CC=CC23O[C@@H]4C=CCOC(=O)[C@@H]4[C@H]2C(=O)N(CCCCCO)[C@@H]3C1=O (stereo not given in full); Criterion met
C=CC[C@@]1(C(=O)O)N=C(c2ccc(OCCCO)cc2)O[C@@H]1c1ccccc1CN=[N+]=[N-]; Criterion not met
C[C@]1(C(=O)NCC(F)(F)F)c2ccccc2C(=O)N(Cc2ccc(OC(F)(F)F)cc2)[C@H]1c1ccc(CO)cc1; Criterion met
CCCC=C(CCC)[C@@H](NC(=O)c1ccccc1)c1ccc(C(=O)OC)cc1; Criterion not met

Hello, I need to know if `C=CCNC(=O)[C@@H]1[C@H]2C(=O)O[C@H](c3ccccc3)[C@H](c3ccccc3)N2[C@H](c2ccccc2OCCO)[C@@]12C(=O)N(C(=O)OCCOC)c1ccc(C#CCCO)cc12` has measured composite z-score not below 1. Thanks!
Criterion met

Could you please find out whether `C#CCN(C/C=C/c1ccccc1)[C@H](CO[Si](C)(C)C(C)(C)C)c1ccccc1` has composite z-score that meets 1 or exceeds it?
Criterion not met

###

So I've got a bunch of molecules here, and I need their z-score values.
- TEST DETAILS: basal RPMI8226 mitochondrial membrane potential changes, profiling panel, cell-based, JC-1 fluorescence, 24 h, 100 nL compound (AID 1169); note: test concentration not given here
- RUN PARAMETERS: RPMI8226 myeloma, JC-1 mitochondrial potential fluorescence, higher = more signal
Numbers only.

Previously resolved entries follow.
CCC[C@@H]1[C@@H](Sc2ccccc2)[C@@H](C(=O)O)[C@H](c2ccc(C)cc2)N1S(=O)(=O)c1ccc(C)cc1; -0.134
[N-]=[N+]=NCc1ccccc1C[C@]1(C(=O)O)COC(c2ccc(OCCCO)cc2)=N1; -0.285
CN1C=C(C(=O)OCCS(C)(=O)=O)C(C(=O)OCCS(C)(=O)=O)=CC(CCCO)=CC1c1ccc(CN2CCCC2)cc1 (configuration not stated); 1.33
O=C(NCC(F)(F)F)[C@@H]1c2ccccc2C(=O)N(CC23CC4CC(CC(C4)C2)C3)[C@H]1c1ccc(CO)cc1; 0.417
C=CCNC(=O)[C@H]1[C@@H]2C(=O)O[C@@H](c3ccccc3)[C@@H](c3ccccc3)N2[C@@H](c2ccc(O)cc2)[C@]12C(=O)Nc1ccc(C#CC3=CCCCC3)cc12; -1.14
N#Cc1ccc(C(O)C2C=CC3C(=O)NC(=O)C3N2Nc2ccccn2)cc1 (configuration not stated); 0.274

// moving on: another record for z-score
// returns reported z-score for input `COc1ccc(NC(=O)O[C@H]2[C@H](OC(=O)Nc3ccc4c(c3)OCO4)[C@H](OC(=O)Nc3ccc4c(c3)OCO4)[C@@H](OC)O[C@@H]2CO)cc1`
-0.685

###

- TEST DETAILS: small-molecule binders of probe aLefty1, primary screen, biochemical, small-molecule microarray, 635/667 nm fluorescence (AID 1153);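 note: score merges spot fluorescence with signal-to-noise ratio from the scanned slide images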
- RUN PARAMETERS: higher = more signal
Classification field: YES = composite z-score at or over -0.007; NO = composite z-score under -0.007.

Decide: composite z-score of `Cc1ccc(S(=O)(=O)N2[C@@H](c3ccccc3)C(C(=O)O)=CC[C@H]2c2ccc(C#N)cc2)cc1` >= -0.007?
YES

###

- TEST DETAILS: small-molecule binders of probe aLefty1, primary screen, biochemical, small-molecule microarray, 635/667 nm fluorescence (AID 1153);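 note: score merges spot fluorescence with signal-to-noise ratio from the scanned slide images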
- RUN PARAMETERS: higher = more signal
Param threshold (-0.005) applies to composite z-score; output Condition met when value >= threshold, Condition not met when value < threshold.

Known results for molecules:
O=C1OCCC=C[C@H]2OC34C=CCN(c5ccc(Cl)cc5)C(=O)[C@H]3N(CCO)C(=O)[C@@H]4C12 (some centres undefined); Condition not met
C[N+](C)(C)CCCCCCNC(=O)[C@@H]1C[C@@H]2C(=O)N[C@@H](Cc3ccccc3)C(=O)N2[C@@H]1c1ccc(O)cc1; Condition met
C=CCC(OC(C)=O)[C@@H]1[C@@H](N(Cc2ccc(-c3cccc(C(F)(F)F)c3)o2)C(=O)Cc2ccc(OC)cc2)c2cc(OCCCO)ccc2N1C(=O)c1ccc2ccccc2n1 (some centres undefined); Condition met

Has `C=CCNC(=O)[C@H]1[C@@H]2C(=O)O[C@@H](c3ccccc3)[C@@H](c3ccccc3)N2[C@@H](c2ccccc2OCCO)[C@]12C(=O)N(C(=O)OCCOC)c1ccccc12` a recorded composite z-score greater than or equal to -0.005?
Condition met

Can CCCCC(O)C1C=CC2C(=O)NC(=O)C2N1Nc1ccccn1 (centres undefined) be said to have composite z-score at or above -0.005?
Condition met

# bool: composite z-score of `COCCOC(=O)N1C(=O)[C@@]2(c3cc(C#CC4=CCCCC4)ccc31)[C@H](c1ccccc1OCCO)N1[C@H](c3ccccc3)[C@H](c3ccccc3)OC(=O)[C@H]1[C@@H]2C(N)=O` >= -0.005
Condition not met

Determine whether this molecule has composite z-score no lower than -0.005: `COCCOC(=O)N1C(=O)[C@@]2(c3cc(C#Cc4ccc(OC)cc4)ccc31)[C@H](C(=O)Nc1nc3ccccc3s1)[C@H]1C(=O)O[C@H](c3ccccc3)[C@H](c3ccccc3)N1[C@@H]2c1ccccc1OCCO`
Condition not met

Form field: composite z-score at least -0.005? Entry: `CC1(C)OC[C@@]23C=C(Br)[C@@H](C[C@H]12)[C@@]1(CO1)C3=O`
Condition met

Exam item: decide whether the reported composite z-score for C=CCC(OC(C)=O)[C@@H]1[C@@H](N(Cc2cc3ccccc3o2)C(=O)c2cccc3ccccc23)c2cc(OCCCO)ccc2N1C(=O)c1ccc2ccccc2c1 (some centres undefined) is at least -0.005.
Condition met

Decide: composite z-score of `C=C(CCCC)C(=O)CC[C@H](OC(C)=O)c1ccccc1OCCO` >= -0.005?
Condition met

Does the molecule `CN(C)CCCNC(=O)[C@@H]1c2ccccc2C(=O)N(C2Cc3ccccc3C2)[C@H]1c1ccc(CO)cc1` have recorded composite z-score that is -0.005 or more?
Condition not met

Dear colleague, could you confirm whether `CC(C)CNC(=O)[C@@H]1c2ccccc2C(=O)N(Cc2ccccc2Cl)[C@H]1c1ccc(CO)cc1` has composite z-score at or above -0.005?
Condition not met

In plain terms: is recorded composite z-score at least -0.005 for `COc1ccc([Si](C)(C)[C@H]2[C@H](CCO)O[C@@]3(C(=O)N(Cc4ccc(N5CCOC5=O)cc4)c4ccccc43)[C@@H]2C)cc1` ?
Condition met

Check if composite z-score >= -0.005 (inclusive). Item: `CC(C)CNC(=O)[C@@H]1c2ccccc2C(=O)N(CC23CC4CC(CC(C4)C2)C3)[C@H]1c1ccc(CO)cc1`
Condition not met
